- Protocol Notes: recombinant UMI read abundance after kanamycin selection (control-corrected) (log10(CPM+1)); higher = more efficient recombination; extreme values may be limits of the assay; sequences stand for … in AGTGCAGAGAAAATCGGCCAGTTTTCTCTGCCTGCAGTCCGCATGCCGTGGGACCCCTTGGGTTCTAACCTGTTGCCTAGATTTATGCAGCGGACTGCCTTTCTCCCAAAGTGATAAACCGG…AGGTTGGTTTCACT; site = the 11-nt donor;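 note: IS621 bridge recombinase in Escherichia coli cells against a fixed T5 target plasmid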
Metric Name: recombinant UMI read abundance (log10)
Note: the reply should be a number with no unit written.

Exercise: Dear colleague, I am looking for the recorded recombinant UMI read abundance (log10) of the following sequence: GTTGGTACATGGACCGGTTTTCCCGGTAATCCGTATTTGAC (site GTAGGTACTGT)
Key: 1.9

* * *

Catalogue of sequences with associated recombinant UMI read abundance (log10)
- Protocol Notes: recombinant UMI read abundance after kanamycin selection (control-corrected) (log10(CPM+1)); higher = more efficient recombination; extreme values may be limits of the assay; sequences stand for … in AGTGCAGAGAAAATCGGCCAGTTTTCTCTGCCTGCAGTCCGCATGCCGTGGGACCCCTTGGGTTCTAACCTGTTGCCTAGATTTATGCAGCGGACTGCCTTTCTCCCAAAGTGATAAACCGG…AGGTTGGTTTCACT; site = the 11-nt donor
Note: the reply should be a number with no unit written.

{"columns": ["Sequence String", "recombinant UMI read abundance (log10)"],
 "data": [
  ["TTTAGAGCATGGACCGGTTTTCCCGGTAATCCGTATTTGTT (site TTTAGAGCTAA)", 0.975]
]}

Exercise: Dear colleague, I am looking for the recorded recombinant UMI read abundance (log10) of the following sequence: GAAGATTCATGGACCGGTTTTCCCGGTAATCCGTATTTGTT (site GAGGATTCTAA)
Key: 0

Exercise: Dear colleague, I am looking for the recorded recombinant UMI read abundance (log10) of the following sequence: ACACATGCATGGACCGGTTTTCCCGGTAATCCGTATTTGAC (site ACACATTCTGT)
Key: 0.598

Exercise: Dear colleague, I am looking for the recorded recombinant UMI read abundance (log10) of the following sequence: GGGATGCCATGGACCGGTTTTCCCGGTAATCCGTATTTGGC (site GGGATGCCTGC)
Key: 0

Exercise: Dear colleague, I am looking for the recorded recombinant UMI read abundance (log10) of the following sequence: TCAGTACCATGGACCGGTTTTCCCGGTAATCCGTATTTGTG (site TCAGTACCTCA)
Key: 0.023

Exercise: Dear colleague, I am looking for the recorded recombinant UMI read abundance (log10) of the following sequence: GGGGTTGCATGGACCGGTTTTCCCGGTAATCCGTATTTGCG (site GGGGTTGCTCG)
Key: 1.75

* * *

- Protocol Notes: recombinant UMI read abundance after kanamycin selection (control-corrected) (log10(CPM+1)); higher = more efficient recombination; extreme values may be limits of the assay; sequences stand for … in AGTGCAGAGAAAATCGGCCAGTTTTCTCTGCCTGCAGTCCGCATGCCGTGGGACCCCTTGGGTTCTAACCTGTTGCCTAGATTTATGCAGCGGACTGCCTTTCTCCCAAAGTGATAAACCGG…AGGTTGGTTTCACT; site = the 11-nt donor
Catalogue of sequences with associated recombinant UMI read abundance (log10)
Note: the reply should be a number with no unit written.

{"columns": ["Sequence String", "recombinant UMI read abundance (log10)"],
 "data": [
  ["TATTTCGCATGGACCGGTTTTCCCGGTAATCCGTATTTGTG (site TATTTCGCTCA)", 0.00881],
  ["AATTACGCATGGACCGGTTTTCCCGGTAATCCGTATTTGGA (site AATTAGGCTTC)", 0.158],
  ["TGTACATCATGGACCGGTTTTCCCGGTAATCCGTATTTGAC (site TGTACAGCTGT)", 0],
  ["CGGAAACCATGGACCGGTTTTCCCGGTAATCCGTATTTGAT (site CGGTAACCTAT)", 0],
  ["AGCCAGACATGGACCGGTTTTCCCGGTAATCCGTATTTGCA (site AGGAAGACTTG)", 0]
]}

Exercise: Dear colleague, I am looking for the recorded recombinant UMI read abundance (log10) of the following sequence: TATACACCATGGACCGGTTTTCCCGGTAATCCGTATTTGAC (site TTTACACCTGT)
Key: 0

Exercise: Dear colleague, I am looking for the recorded recombinant UMI read abundance (log10) of the following sequence: GCTGGTCCATGGACCGGTTTTCCCGGTAATCCGTATTTGTA (site GCTGGTCCTTA)
Key: 0.297

Exercise: Dear colleague, I am looking for the recorded recombinant UMI read abundance (log10) of the following sequence: CATGTCACATGGACCGGTTTTCCCGGTAATCCGTATTTGGG (site CACGTCACTCC)
Key: 0.0251

Exercise: Dear colleague, I am looking for the recorded recombinant UMI read abundance (log10) of the following sequence: CTACCTACATGGACCGGTTTTCCCGGTAATCCGTATTTGAG (site CTCCCTACTCT)
Key: 0.0123

Exercise: Dear colleague, I am looking for the recorded recombinant UMI read abundance (log10) of the following sequence: GACTTGGCATGGACCGGTTTTCCCGGTAATCCGTATTTGGA (site CACTTGGCTTC)
Key: 0.579

Exercise: Dear colleague, I am looking for the recorded recombinant UMI read abundance (log10) of the following sequence: GCAGAATCATGGACCGGTTTTCCCGGTAATCCGTATTTGCA (site ACAGTATCTTG)
Key: 1.67

Exercise: Dear colleague, I am looking for the recorded recombinant UMI read abundance (log10) of the following sequence: TCGTCGCCATGGACCGGTTTTCCCGGTAATCCGTATTTGCA (site TCGTCGCCTTG)
Key: 0.00504

Where do these numbers come from? They come from the supplement of paper PMC11208160.
